Source: PubChem BioAssay AID1259389

experiment: TAR RNA-Tat peptide displacers, HIV-1, primary screen, biochemical, FRET, FAM/TAMRA-labeled Tat (AID 1259389); details: HIV-1 TAR RNA, Tat peptide displacement FRET; hits give high values
Out of some 100,000 compounds screened, about 620 (0.62%) were called active. Shown is part of a subset that was picked to be rich in actives.
Reported z-score values follow for various compounds
Keep it simple and answer with nothing but the number.

Examples with answers:
[[record]]
compound = "O=C1CCCC2=C1C(c1cccs1)N(C(=O)CCC(=O)N1CCOCC1)c1ccccc1N2 (stereo not drawn)"
measure = "z-score"
result_number = 0.78

[[record]]
compound = "O=C(OCc1cc(=O)n2nc(C3CCCCC3)sc2n1)c1ccccc1"
measure = "z-score"
result_number = 0.63

[[record]]
compound = "NC(=O)Cn1c(=O)n(CCCCC(=O)NCc2ccco2)c(=O)c2ccccc21"
measure = "z-score"
result_number = -0.85

[[record]]
compound = "Cc1cc(NS(=O)(=O)c2ccc(-n3cccn3)cc2)ccc1Br"
measure = "z-score"
result_number = 0.31

[[record]]
compound = "Cc1nnc2sc(-c3ccco3)nn12"
measure = "z-score"
result_number = -1.16

[[record]]
compound = "O=c1c(N2CCN(C/C=C/c3ccccc3)CC2)csc2ccc(Cl)cc12"
measure = "z-score"
result_number = -2.75

[[record]]
compound = "COc1ccccc1C1Nc2ccc(C(=O)O)cc2C2C3CCC(C3)C12 (stereo not drawn)"
measure = "z-score"
result_number = 8.02

[[record]]
compound = "c1ccc(-c2nnc3sc(-c4ccc5c(c4)OCCO5)nn23)cc1"
measure = "z-score"
result_number = -0.37

[[record]]
compound = "CCOC(=O)N1CCN(c2cc(NCCO)c3c4c(onc24)-c2ccccc2C3=O)CC1"
measure = "z-score"
result_number = 2.61

[[record]]
compound = "CCCS(=O)(=O)Nc1cccc(-c2cn3ccsc3n2)c1"
measure = "z-score"
result_number = 15.9


Prompt: Report z-score, nothing else, for this compound: "CCN(CC)C(=O)CCc1nc(CN2CCN(S(=O)(=O)c3cccs3)CC2)no1"
Response: -6.66

Prompt: Report z-score, nothing else, for this compound: "Cc1ccc(S(=O)(=O)Nc2cccc(-c3cn4ccccc4n3)c2)cc1C"
Response: 0.58

Prompt: Report z-score, nothing else, for this compound: "Cc1nc(S(=O)(=O)Nc2ccc(C(C)C)cc2)cn1C"
Response: 1.64

Prompt: Report z-score, nothing else, for this compound: Cc1noc2ncnc(N3CCCC(C(=O)Nc4ccccn4)C3)c12 (stereo not drawn)
Response: 0.85

Prompt: Report z-score, nothing else, for this compound: "O=C1CSc2ccc(S(=O)(=O)NCc3ccccc3)cc2N1"
Response: 0.46
